The measurements presented in this section are drawn from ChEMBL document CHEMBL1201862.

# Test system: EKVX
# experiment-notes: NCI tumour cell line growth inhibition, 48 h
Activity calls are given as the source filed them. Rule as the data show it: active = GI50 up to about 1.1 µM and inactive = higher.
Parameter: GI50. Scope: all listed entries.

As a guide, the following entries are already answered.
C=C1C(=O)C=C[C@]2(C)CC[C@H]3C(=C)C(=O)O[C@@H]3[C@@H]12	3.17 µM (inactive)
C1CCCCC2(CCCCCCCCC3(CCC1)OCCO3)OCCO2	> 100 µM (inactive)
NC1C=NNC1=O (stereo not drawn)	> 100 µM (inactive)
COP(=O)(OC)C(C)(C)NC(=O)NC(F)(F)F	> 100 µM (inactive)

Output GI50 of `CC(C)N(C(=O)C12CC3CC(CC(C3)C1)C2)C(C)C`
> 50 µM (inactive)

Annotate the compound CC(=O)c1ccccc1NC(=O)C(=O)C(C(=O)c1ccccc1-c1ccccc1)C1OC(=O)c2ccccc21 (stereo not drawn) with its measured GI50.
29.7 µM (inactive)

Return the recorded GI50 value; entry: O=C(O)C1OC(Oc2cc(O)c3c(=O)cc(-c4ccc(O)cc4)oc3c2)C(O)C(O)C1O (stereo not drawn)
> 100 µM (inactive)

Answer with the recorded GI50 for the compound listed here: `Brc1ccc(C[P+]2(c3ccccc3)CCCCC2)cc1.[O-][Cl+3]([O-])([O-])[O-]`
> 100 µM (inactive)

Read the entry `CCOc1cc2c(OCc3ccccc3)cc3c4cc(OC)c(OC)cc4c[n+](C)c3c2cc1OC` and write its reported GI50.
17.8 µM (inactive)

Determine its reported GI50: `COc1ccccc1-n1c(C)nc2ccccc2c1=O`
> 100 µM (inactive)

Retrieve GI50 measured for `O=C1CC2(CCNCC2)C(=O)N1N1CCCC1` and print it.
> 100 µM (inactive)

Determine from records and report GI50 for `Cc1c(C#N)c2nnn(C)c(=O)n2c1-c1ccccc1`
56 µM (inactive)

Provide only the value of recorded GI50 for `COc1ccc(-c2c3c(cc4cc5c(cc24)OCO5)C(=O)OC3)cc1OC`
1.96 µM (inactive)
